Molecular target: N-myc;MAX (human;human, UniProt P04198;P61244 1-464;1-160, |)
Sequence (P04198 whole entry, chain 1 of 2): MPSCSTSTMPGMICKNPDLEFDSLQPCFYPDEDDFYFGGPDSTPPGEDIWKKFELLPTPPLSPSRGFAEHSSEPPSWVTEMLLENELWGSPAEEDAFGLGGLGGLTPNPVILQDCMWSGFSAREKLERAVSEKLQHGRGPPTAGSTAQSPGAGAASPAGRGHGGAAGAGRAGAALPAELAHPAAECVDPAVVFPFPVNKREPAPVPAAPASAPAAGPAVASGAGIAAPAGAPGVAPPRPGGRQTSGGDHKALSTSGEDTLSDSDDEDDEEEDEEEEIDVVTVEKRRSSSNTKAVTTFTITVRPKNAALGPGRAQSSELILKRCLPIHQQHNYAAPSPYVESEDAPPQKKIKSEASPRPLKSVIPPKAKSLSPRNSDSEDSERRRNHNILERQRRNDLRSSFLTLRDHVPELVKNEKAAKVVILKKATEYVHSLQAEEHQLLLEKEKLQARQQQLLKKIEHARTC
Sequence (P61244 whole entry, chain 2 of 2): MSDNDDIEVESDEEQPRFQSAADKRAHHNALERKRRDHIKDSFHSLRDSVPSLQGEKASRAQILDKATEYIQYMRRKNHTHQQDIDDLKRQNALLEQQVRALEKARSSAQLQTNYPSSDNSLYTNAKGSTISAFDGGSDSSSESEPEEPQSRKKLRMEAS
Experiment: fluorescence anisotropy
Below is a list of entries, each paired with its recorded Kd value.

>  <BINDER>
1 NC Ebox CATATG (table: NC Ebox-TC; text: NCE-TA) (dsDNA) DNA 1: AGCTTAACTGACCATATGGTCAACTA DNA 2: TAGTTGACCATATGGTCAGTTAAGCT

>  <TEST_VALUE>
~735 nM

$$$$

We next turn to a different binder, shown below.
Ask: Entry 1 NC Ebox CATCTG (table: NC Ebox-TA; text: NCE-TC) (dsDNA) DNA 1: AGCTTAACTGACCATCTGGTCAACTA DNA 2: TAGTTGACCAGATGGTCAGTTAAGCT : reported Kd = ?
Result: ~655 nM
